# experimental.system: Virion infectivity factor (Human immunodeficiency virus type 1 group M subtype B (isolate BH10)) + Virion infectivity factor (Human immunodeficiency virus type 1 group M subtype B (isolate BRU/LAI)) + Virion infectivity factor (Human immunodeficiency virus type 1 group M subtype B (isolate PCV12)) + Virion infectivity factor (Human immunodeficiency virus type 1 group M subtype B (isolate HXB2)) + DNA dC->dU-editing enzyme APOBEC-3G (Homo sapiens) (UniProt P69720+P69721+P69722+P69723+Q9HC16)
# test: inhibitors of Vif binding to APOBEC3G peptide, primary screen, biochemical, TR-FRET, GST-Vif 1-94, biotin-A3G peptide, dose response retest (AID 1117319);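 further: Vif residues 1-94 fused to GST binding biotinylated APOBEC3G peptide 110-148; 0% = full assay without inhibitor and 100% = GST in place of GST-Vif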
# setup.conditions: hits give high values
Among all 260,000 compounds or so, about 1,500 (0.58%) were called active. Inconclusive results (about 5%) are left out. Only a sample is shown. Potency and affinity values are given separately.
observed.property: inhibition (%)
One number for each entry, in %.

1) Cc1cc(OCCn2cnc3ccccc3c2=O)ccc1[N+](=O)[O-]	3.47

For every listed record, write down its inhibition.
1. O=c1cc(CO)oc(C(Nc2ccccn2)c2ccc(C(F)(F)F)cc2)c1O (stereo not given)
2. O=C(Nc1cccc(S(=O)(=O)NC2=NCCC2)c1)c1cc(-c2ccccn2)nc2ccccc12
3. O=C(NCC1CCCO1)c1cc(-c2ccncc2)nc2ccccc12 (stereo not given)
4. COC1C=COC2(C)Oc3c(C)c(O)c4c(O)c(c(CN5CCN(C)CC5)c(O)c4c3C2=O)NC(=O)C(C)=CC=CC(C)C(O)C(C)C(O)C(C)C(OC(C)=O)C1C (stereo not given)
5. CSc1oc(-c2ccco2)nc1S(=O)(=O)c1ccc(F)cc1
6. Cc1ccc(Nc2cnn(C34CC5CC(CC(CC(=O)O)(C5)C3)C4)c(=O)c2Cl)cc1
7. CCOC(=O)c1cc(NC(=O)CNCC(c2ccccc2)N(C)C)cc(C(=O)OCC)c1 (stereo not given)
8. Cc1ccc(NC(=O)C2CCC2)cc1S(=O)(=O)N1CCCCCC1

[10.8, -2.06, -2.45, 13.7, 9.31, -0.2, -3.03, 0.74]
